Record form. Attribute: GI50. Fill in for each entry.
Tested on: CAKI-1
assay info: NCI tumour cell line growth inhibition, 48 h
The source made the active and inactive calls. Rule as the data show it: active = GI50 up to about 1.1 µM and inactive = higher.

// known answers, use as guide
molecule	GI50
COc1ccc2c(c1)N=C1CSC(c3cccc(Br)c3)N1C2 (centres undefined)	6.19 µM (inactive)
CC1=CC(c2ccccc2)OP1(=O)c1ccccc1 (centres undefined)	> 100 µM (inactive)

List the reported GI50 of each molecule below.
1. O=C1NC(=O)[C@@]2(CC[C@@H](O)C2)c2ccncc21
2. Nc1nc(N)c(-c2ccc(Cl)cc2)c(CCC(=O)Nc2cccc(C(F)(F)F)c2)n1
3. CCOC(=O)N(Cc1cccs1)c1cc(OC)c(OC)c(OC)c1
4. CO[C@H]1[C@H](O)[C@H](O[C@H]2CC[C@@]3(C)[C@H](CC[C@@H]4[C@@H]3CC[C@]3(C)[C@@H](C5=CC(=O)OC5)CC[C@]43O)C2)O[C@@H](C)[C@@H]1O

1: > 100 µM (inactive); 2: > 100 µM (inactive); 3: 56.5 µM (inactive); 4: 0.000572 µM (active)

List the reported GI50 of each molecule below.
1. CC(=O)C(=[N+]=[N-])C(=O)NCC#N
2. CCCCCC(C[N+]1(C)CCOCC1)C(=O)/C=C/c1ccccc1 (centres undefined)
3. C=CCO[C@H]1CC[C@@]2(C)C(CC[C@]3(C)C2CC=C2[C@@H]4[C@@H](C)C(C)CC[C@]4(C(=O)O)CCC23C)C1(C)C (some centres undefined)
4. OCCN(CCO)CCn1cnc2c(NCc3ccccc3)ncnc21

["> 10 µM (inactive)", "16.9 µM (inactive)", "17.9 µM (inactive)", "> 100 µM (inactive)"]

----------
Tested on: SK-MEL-2
assay info: NCI tumour cell line growth inhibition, 48 h
The source made the active and inactive calls. Cut-off read from the data, not from the text of the source: active = GI50 up to about 1.1 µM and inactive = higher.
Give one outcome, nothing more. List: Y (active), N (inactive)

compound	class
O=C(Nc1ccc(-c2cn3ccccc3n2)cc1)c1cc(Br)ccc1O	N
COc1ccc(C[C@H](N)C(=O)N2C[C@H](CO)C[C@H](n3ccc(=O)[nH]c3=O)C2)cc1	N
Cc1c(C(=O)O)n2cnnc2c2ccccc12	N
O=C1/C(=C\c2ccc(O)cc2)CCC/C1=C/c1ccc(Cl)c(Cl)c1	N
CC1=C(N2CC2)C(=O)c2nc3n(c2C1=O)CCC3OC(=O)CCl (stereo not given)	Y
N#CNc1nc(N)c(-c2ccc(Cl)cc2)c(C(=O)Nc2nccs2)n1	N
OC[C@H]1O[C@@H](n2cnc3cncnc32)[C@H](O)[C@@H]1O [NEBULARINE]	N
CCO/C([O-])=C(\C(=O)c1ccccc1)[n+]1c(C)n(C)c2ccccc21	N
CCCCN1C(=O)CC2[C@@H]3CCc4cc(OC(C)=O)ccc4C3CC[C@]2(C)C1=O (stereo not given in full)	N
COc1ccc(/C(Br)=C2\OC(=O)c3ccccc32)cc1	N

Each compound tested received a call. Report the one for `C[n+]1c2ccccc2c(N=[N+]=[N-])c2ccccc21` .
N

----------
Tested on: OVCAR-5
assay info: NCI tumour cell line growth inhibition, 48 h
The source made the active and inactive calls. Rule as the data show it: active = GI50 up to about 1.1 µM and inactive = higher. Peptide text beside a SMILES is read from it.
Give one outcome, nothing more. List: TRUE (active), FALSE (inactive)

For orientation, consider the following solved cases.
molecule	class
NS(=O)(=O)c1ccc(Nc2c3ccccc3nc3c(C(=O)NCCCN(CCO)CCO)cccc23)cc1	FALSE
Cc1nc2ccc(F)cc2c2c1CCN2c1ccc(Cl)cc1	FALSE
Brc1ccc2c(c1)C1=C(CO2)Cc2ccccc2O1	FALSE
ClCCCc1ccccc1C1=NCCc2ccccc21	FALSE
CCC(C)C(NC(=O)C(NC(=O)C(CC(N)=O)NC(=O)CN)C(C)O)C(=O)NC(C(=O)NC(C)C(=O)NC(C(=O)NC(CCC(=O)O)C(=O)NC(CC(C)C)C(=O)NC(CC(=O)O)C(=O)NC(C(=O)NC(Cc1ccc(O)cc1)C(=O)N1CCCC1C(=O)O)C(C)O)C(C)C)C(C)C (configuration not stated) (H-GNTIVAVELDTYP-OH; configuration not given here)	FALSE
CCNC(=O)C(O)C1(O)CCC2[C@@H]3CCC4=CC(=O)C=C[C@]4(C)C3[C@@H](O)C[C@@]21C (some centres not stated)	FALSE
CC(=O)N1c2ccccc2N(C(C)=O)C1c1ccc(C2N(C(C)=O)c3ccccc3N2C(C)=O)[nH]1	FALSE
CC(=O)C(=[N+]=[N-])C(=O)NCC#N	FALSE
Cc1ccc([S@+]([O-])c2occc2C=O)cc1	FALSE
CC1CC(=O)N(N(C)C)C(C#N)(C#N)C1(C#N)C#N (configuration not stated)	FALSE

Each molecule tested received a call. Report the one for `Cc1cc(N(CCC#N)CCC#N)ccc1/N=N/c1ccc(S(N)(=O)=O)cc1` .
FALSE

Each molecule tested received a call. Report the one for `COc1ccc(CCCCl)c(C2=NCCc3ccccc32)c1` .
FALSE

Each molecule tested received a call. Report the one for `CCOC(=O)/C(C#N)=C/c1ccc2c(-c3c(OCC)ccc4cc(/C=C(\C#N)C(=O)OCC)ccc34)c(OCC)ccc2c1` .
FALSE

Each molecule tested received a call. Report the one for `CC(C)(C)OC(=O)N1C(C2=COc3ccccc3O2)=COc2ccccc21` .
FALSE

Each molecule tested received a call. Report the one for NC(=O)CCC(NC(=O)c1cccc2c(=O)c3ccccc3[nH]c12)C(=O)O (configuration not stated) .
FALSE

Each molecule tested received a call. Report the one for `O=C1/C(=C\c2ccc(O)cc2)CCC/C1=C/c1ccc(Cl)c(Cl)c1` .
FALSE

Each molecule tested received a call. Report the one for `Cc1cc2c3c([nH]c2c2ccnc(C)c12)CCCC3` .
FALSE

Each molecule tested received a call. Report the one for `CNC1(C(=O)O)CC1` .
FALSE

Each molecule tested received a call. Report the one for CN1C(OCc2ccccc2)c2c(ccc3c2OCO3)C2C=Cc3cc4c(cc3C21)OCO4 (configuration not stated) .
FALSE

Each molecule tested received a call. Report the one for C=C(C(=O)OC1C(CO)OC(OCC2CC[C@@H]3C[C@]4(OC(=O)C3=C)C(C)=CC(=O)C24)C(O)C1O)[C@@H]1CCC(CO)C2C(=O)C=C(C)[C@@]2(O)C1 (some centres not stated) .
FALSE

Each molecule tested received a call. Report the one for `CC(=O)c1ccc2c(c1)C(=O)c1sc(C(C)=O)cc1C2=O` .
TRUE
